system: 786-0 renal; assay: NCI-60 one-dose screen, 48 h (100 = growth as untreated, 0 = no growth, -100 = all killed); conditions: 10 µM unless noted
Compounds without any hit were thinned out: in the full panel of roughly 83,000, 20% have a hit. The source made the active and inactive calls. How the source made its calls: active means growth percent below 10; inactive means the rest.
PROPERTY: growth

Known growth results, listed for orientation:
[
  {
    "COMPOUND": "CSc1nc2sc3cc(Cl)c(Cl)cc3n2c(=N)c1C#N",
    "growth": "102% (inactive)"
  },
  {
    "COMPOUND": "O=C1COCCN1c1ccc(NCc2cn(Cc3cccc4ccccc34)c3ccccc23)cc1",
    "growth": "98.8% (inactive)"
  },
  {
    "COMPOUND": "COc1ccc(-c2ccc(NNC(=O)c3ccc(F)cc3)nn2)cc1OC",
    "growth": "63.4% (inactive)"
  },
  {
    "COMPOUND": "O=C(Nc1cccc(C2=NCCN2)c1)c1cccc(C(=O)Nc2cccc(C3=NCCN3)c2)c1",
    "growth": "103% (inactive)"
  },
  {
    "COMPOUND": "O=C(Nc1cccc2ccccc12)c1cc2ccccc2cc1O",
    "growth": "22.2% (inactive)"
  },
  {
    "COMPOUND": "CCN(CC)c1ccc(/C=C/c2ccc3cc(C)ccc3[n+]2CC)cc1",
    "growth": "16.2% (inactive)"
  },
  {
    "COMPOUND": "C#C[C@]1(O)CC[C@H]2[C@@H]3CC=C4c5nc(Nc6ncccn6)sc5CC[C@]4(C)[C@H]3CC[C@@]21C",
    "growth": "-45.2% (active)"
  },
  {
    "COMPOUND": "Cc1ccc(-c2cn(C/C=C3\\C=CN(S(=O)(=O)c4ccccc4)CC3)nn2)cc1",
    "growth": "101% (inactive)"
  }
]

I am curious: what growth value has been reported for `C=C(C)[C@@H]1CC[C@]2(C(N)=O)CC[C@]3(C)[C@H](CC[C@@H]4[C@@]5(C)C/C(=C/c6cccnc6)C(=O)C(C)(C)[C@@H]5CC[C@]43C)[C@@H]12` ?
18.1% [100 µM] (inactive)

So what does the record say about growth for `O=C(N/N=C1\c2ccccc2-c2cccc(C(=O)O)c21)c1ccc(O)cc1` ?
97.5% (inactive)

I have this compound here, `CCn1cc(-c2[nH]c(=S)ncc2-c2ccc(Cl)cc2)c(-c2ccc(Br)cc2)n1` , and I need its recorded growth.
101% (inactive)

Any idea what growth was measured for `Clc1ccc(/C=N/Nc2nc3ccccc3s2)c(Cl)c1` ?
90.7% (inactive)

Data request, read-out growth, for `C=C1C(=O)O[C@H]2[C@H]1CC/C(COC(=O)NCc1ccc(Cn3c(=O)sn(-c4ccc(Cl)cc4)c3=O)cc1)=C\CC[C@@]1(C)O[C@@H]21`
70.8% (inactive)

###

System: T-47D breast
Test: NCI-60 one-dose screen, 48 h (100 = growth as untreated, 0 = no growth, -100 = all killed)
Details: 10 µM unless noted
Description: Growth inhibition of the T-47D human tumor cell line is measured as a screen for anti-cancer activity. Cells are grown in 96 well plates and exposed to the test compound for 48 hours. Compounds are tested at a single concentration, which is 10^-5 M for most compounds. The reported endpoint is percent growth (GI% or GIPRCNT), where numbers from 0 - 100% represent growth inhibition, and numbers from -100% - 0 represent cell death. For example, a value of 40 represents 60% growth inhibition. […]
The panel holds about 83,000 compounds, 20% with a hit somewhere; the sample as a whole holds those more often.
PROPERTY: growth (%)
Please respond with the number in % and leave the unit unwritten.

In the examples that follow, each entry is paired with its recorded growth.
[
  {
    "COMPOUND_STRUCTURE_STRING": "OC(c1ccc(Cl)cc1)(c1ccc(Cl)cc1)C(O)(c1ccc(Cl)cc1)c1ccc(Cl)cc1",
    "growth / %": 32.9
  },
  {
    "COMPOUND_STRUCTURE_STRING": "NC(=O)c1c(NC(=O)COC(=O)Cc2ccccc2F)sc2c1CCC2",
    "growth / %": 88.8
  },
  {
    "COMPOUND_STRUCTURE_STRING": "Cn1cc(-c2nnc(-c3ccccc3)s2)c2cc(Br)cnc21",
    "growth / %": 44
  }
]

Give its growth value. Item: `O=C(NCc1ccc(Cn2c(=O)sn(-c3ccccc3)c2=O)cc1)OCc1ccc2c(Br)cc(Br)c(O)c2n1`
-49.8

###

system: NCI-H460 lung; test: NCI-60 one-dose screen, 48 h; settings: 10 µM unless noted
This is part of a sample that, as a whole, favours compounds with a hit. Of some 83,000 tested, about 20% had one in any assay. Calls of active or inactive are those of the source. Rule for the calls: active = growth percent below 10; inactive = the rest.
Pick from active, inactive when you respond.

Before answering, review these 6 worked examples.
[
  {
    "MOLECULE": "C=C(C)[C@@H]1CC[C@]2(C)[C@H](C(=O)C=C3[C@@H]4C[C@](C)(C(=O)N5CCN(C)CC5)CC[C@]4(C)CC[C@]32C)[C@@]1(C)CCC#N",
    "ASSIGNED_CLASS": "active"
  },
  {
    "MOLECULE": "CCC(Br)(CC)C(=O)c1ccc(OCC(=O)O)c(Cl)c1Cl",
    "ASSIGNED_CLASS": "inactive"
  },
  {
    "MOLECULE": "C=C(C)[C@@H]1CC[C@]2(COCCC#N)CC[C@]3(C)[C@H](CC[C@@H]4[C@@](C)(CCCNCCC#N)[C@H](C(=C)C)CC[C@]43C)[C@@H]12",
    "ASSIGNED_CLASS": "active"
  },
  {
    "MOLECULE": "CCCCCCCCN(CCCCCCCC)CC(O)c1ccc(Cl)c(C)c1Cl (stereo not drawn)",
    "ASSIGNED_CLASS": "inactive"
  },
  {
    "MOLECULE": "CCOc1cc(/C=N\\NC(=O)N/N=C/c2ccc(O)c(OCC)c2)ccc1O",
    "ASSIGNED_CLASS": "inactive"
  },
  {
    "MOLECULE": "O=S(=O)(NCCCNc1nccc(-c2c(-c3cccc(F)c3)nc3occn23)n1)c1cccc2ccccc12",
    "ASSIGNED_CLASS": "inactive"
  }
]

How did this test come out for `NC(=S)Cc1ccccc1` ?
inactive

Name the outcome recorded for `Cn1cc(-c2nnc(-c3cn(C)c4ncc(Br)cc34)s2)c2cc(Br)ccc21` in the assay.
inactive

###

test system: TK-10 renal; test: NCI-60 one-dose screen, 48 h; conditions: 10 µM unless noted
About 83,000 compounds went through this panel and 20% of them were active in at least one assay; those are over-represented in the sample as a whole. Calls of active or inactive are those of the source. The calls were made as follows: active = growth percent below 10; inactive = the rest.
I would appreciate it if you answered using one of these outcomes: active, inactive

Please review the entries below; each comes with its answer.
[
  {
    "COMPOUND_STRUCTURE_STRING": "NC(=S)Cc1ccccc1",
    "ASSIGNED_CLASS": "inactive"
  },
  {
    "COMPOUND_STRUCTURE_STRING": "O=[N+]([O-])c1cc([N+](=O)[O-])c(NN=C(c2ccc(O)cc2)c2ccc(O)cc2)cc1Cl",
    "ASSIGNED_CLASS": "active"
  },
  {
    "COMPOUND_STRUCTURE_STRING": "C=C(C)[C@@H]1CC[C@]2(COC(=O)c3ccccc3C(=O)O)CC[C@]3(C)[C@H](CC[C@@H]4[C@@]5(C)CC[C@H](OC(=O)c6ccccc6C(=O)O)C(C)(C)[C@@H]5CC[C@]43C)[C@@H]12",
    "ASSIGNED_CLASS": "inactive"
  },
  {
    "COMPOUND_STRUCTURE_STRING": "O=C(NNc1ccc(-c2ccccc2)nn1)c1ccccc1",
    "ASSIGNED_CLASS": "inactive"
  }
]

Per the records of this test, what outcome belongs to `C=C(C)[C@@H]1CC[C@]2(C(=O)OC)CC[C@]3(C)[C@H](CC[C@@H]4[C@@]5(C)CC/C(=N\OCCC(=NCCC#N)NOCCC#N)C(C)(C)[C@@H]5CC[C@]43C)[C@@H]12` ?
inactive

Dear colleague, could you share the recorded outcome for `Nc1nc(Nc2ccccc2)c2ncn(Cc3cc4c(cc3Br)OCO4)c2n1` when you have a moment?
inactive

Entry `COc1ccc2c3ccnc(C(F)(F)F)c3n(CCCCN)c2c1` : call = ?
inactive

Query: recorded result category for `NS(=O)(=O)c1ccc(CCN2C(=O)/C(=C\c3ccccc3)C=C2c2ccc(Cl)cc2)cc1` in this test
inactive

What call does the record list for `O=c1cc(-c2ccccc2)oc2cc(OCc3cn(Cc4ccc(F)cc4)nn3)cc(O)c12` ?
active

Kindly provide the recorded test outcome for the following compound: `C#CCC(C(=O)OCC)C(=O)OCC`
inactive
